target: p110δ/p85α (Homo sapiens, UniProt O00329); assay: Transcreener KINASE Assay, kinase inhibition of p110δ/p85α; assay type: biochemical; conditions: 1 uM test compound
Sequence (O00329 whole entry): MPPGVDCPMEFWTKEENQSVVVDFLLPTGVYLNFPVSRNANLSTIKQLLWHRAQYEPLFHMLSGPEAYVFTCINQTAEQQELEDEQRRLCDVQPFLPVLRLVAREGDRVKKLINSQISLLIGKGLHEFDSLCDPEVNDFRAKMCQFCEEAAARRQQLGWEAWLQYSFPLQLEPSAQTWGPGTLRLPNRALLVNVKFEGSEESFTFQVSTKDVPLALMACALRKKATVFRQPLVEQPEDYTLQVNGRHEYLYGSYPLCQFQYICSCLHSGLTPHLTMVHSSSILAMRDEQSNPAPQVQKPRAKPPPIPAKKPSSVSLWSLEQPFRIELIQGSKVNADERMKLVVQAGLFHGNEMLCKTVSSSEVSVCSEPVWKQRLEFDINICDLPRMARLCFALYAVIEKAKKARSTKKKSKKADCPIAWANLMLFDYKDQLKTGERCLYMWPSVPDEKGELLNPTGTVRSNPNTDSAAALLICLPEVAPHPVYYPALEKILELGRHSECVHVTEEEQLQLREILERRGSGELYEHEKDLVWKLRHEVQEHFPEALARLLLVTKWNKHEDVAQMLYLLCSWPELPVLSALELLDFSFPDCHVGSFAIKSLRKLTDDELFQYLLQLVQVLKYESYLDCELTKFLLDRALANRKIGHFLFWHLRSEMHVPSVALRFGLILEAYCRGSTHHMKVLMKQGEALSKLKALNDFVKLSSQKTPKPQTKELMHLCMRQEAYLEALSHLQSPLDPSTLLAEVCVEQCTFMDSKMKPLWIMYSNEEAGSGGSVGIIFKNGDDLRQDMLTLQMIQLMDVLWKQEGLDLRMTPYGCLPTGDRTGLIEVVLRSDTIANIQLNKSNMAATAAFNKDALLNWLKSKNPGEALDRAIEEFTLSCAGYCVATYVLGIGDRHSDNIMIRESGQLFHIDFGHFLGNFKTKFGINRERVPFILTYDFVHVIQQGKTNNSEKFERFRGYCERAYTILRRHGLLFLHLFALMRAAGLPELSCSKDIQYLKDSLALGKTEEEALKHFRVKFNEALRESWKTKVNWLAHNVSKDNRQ
Sequence (P27986 whole entry partner): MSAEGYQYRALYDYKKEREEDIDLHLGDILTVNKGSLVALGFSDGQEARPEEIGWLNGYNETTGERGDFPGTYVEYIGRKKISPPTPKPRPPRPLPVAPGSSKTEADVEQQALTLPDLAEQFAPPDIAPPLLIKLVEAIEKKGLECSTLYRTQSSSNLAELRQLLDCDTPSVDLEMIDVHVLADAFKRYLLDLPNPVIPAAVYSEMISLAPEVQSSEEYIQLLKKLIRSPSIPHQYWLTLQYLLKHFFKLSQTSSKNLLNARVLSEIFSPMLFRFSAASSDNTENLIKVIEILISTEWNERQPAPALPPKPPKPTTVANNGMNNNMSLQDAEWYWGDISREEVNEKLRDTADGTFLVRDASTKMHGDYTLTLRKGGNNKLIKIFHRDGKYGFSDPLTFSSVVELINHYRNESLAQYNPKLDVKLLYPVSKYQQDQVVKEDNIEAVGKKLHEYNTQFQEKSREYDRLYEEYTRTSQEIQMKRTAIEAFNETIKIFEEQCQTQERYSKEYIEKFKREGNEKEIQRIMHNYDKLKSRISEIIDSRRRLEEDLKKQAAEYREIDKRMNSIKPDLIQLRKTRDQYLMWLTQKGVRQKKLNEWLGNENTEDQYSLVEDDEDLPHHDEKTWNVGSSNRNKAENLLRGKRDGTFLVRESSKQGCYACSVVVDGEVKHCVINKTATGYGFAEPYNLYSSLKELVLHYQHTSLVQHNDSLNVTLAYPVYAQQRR
PI3Kδ IH % @ 1 uM values for the molecules below.

Inquiry: What value of measured PI3Kδ IH % @ 1 uM is listed for N#Cc1c[nH]c2ncnc(N3CCC[C@H]3c3nn4ccc(Cl)c4c(=O)n3C3CCC3)c12 [Compound 162] ?
Reply text: >100%

Inquiry: Proceed to CO[C@H]1C[C@@H](c2nn3ccc(Cl)c3c(=O)n2-c2ccccc2)N(c2ncnc3[nH]cnc23)C1 [Compound 263]
Reply text: >100%

Inquiry: Then N#Cc1c(N)ncnc1N1CC[C@H]1c1nn2ccc(Br)c2c(=O)n1-c1ccccc1 [Compound 194] ?
Reply text: >100%

Inquiry: Again, but for N#Cc1c[nH]c2ncnc(N3C[C@@H](O)C[C@H]3c3nn4ccc(Cl)c4c(=O)n3-c3cccc(F)c3)c12 [Compound 261]
Reply text: >100%

---
Inquiry: Suppose we examine the molecule N#Cc1n[nH]c2ncnc(N3CCC[C@H]3c3nn4ccc(Cl)c4c(=O)n3-c3ccccc3)c12 [Compound 111] ; what PI3Kδ IH % @ 1 uM value has been reported?
Reply text: 93.9%

Inquiry: How about this molecule: COc1ncc(-c2n[nH]c3ncnc(N4CCC[C@H]4c4nn5ccc(Cl)c5c(=O)n4-c4ccccc4)c23)cn1 [Compound 168]
Reply text: >100%

Inquiry: Try this molecule too: CC1(C)CN(c2nc(N)ncc2C#N)C1c1nn2ccc(Cl)c2c(=O)n1-c1ccccc1 (centres unmarked) [Compound 471]
Reply text: >100%

* * *

target: p110δ/p85α (Homo sapiens); experiment: Transcreener KINASE Assay, kinase inhibition of p110δ/p85α; settings: read-out: PI3Kδ IC50
Reported metric: IC50 (µM)

Inquiry: I'm curious: which IC50 was measured for N#Cc1c[nH]c2ncnc(N3CCC[C@H]3c3nn4ccc(Cl)c4c(=O)n3Cc3cccnc3)c12 tested on p110δ/p85α (Homo sapiens)?
Reply text: 0.012

a: N#Cc1c[nH]c2ncnc(N3CC[C@H]3c3nn4ccc(F)c4c(=O)n3-c3ccccc3)c12
b: Nc1ncnc(N2CC[C@H]2c2nn3ccc(Cl)c3c(=O)n2-c2ccccc2)c1Cl
Inquiry: Form field 'greater IC50' accepts a or b ; which applies? Refer to your chosen item by its label in the answer.
Reply text: a

* * *

molecular target: p110δ/p85α (Homo sapiens, UniProt O00329); experiment: Transcreener KINASE Assay, kinase inhibition of p110δ/p85α; type: biochemical; conditions: read-out: PI3Kδ IC50
pIC50: −log10 of the molar value.
Reported metric: pIC50

P: CCC(Nc1ncnc(N)c1C#N)c1cn2ccc(Cl)c2c(=O)n1-c1cccc(F)c1 (stereo not shown) [Compound 86]
Q: Nc1ncc(C(F)(F)F)c(N2CCC[C@H]2c2nn3ccc(Cl)c3c(=O)n2-c2ccccc2)n1 [Compound 50]
R: COCCNC(=O)c1c[nH]c2ncnc(N3CC[C@H]3c3nn4ccc(Cl)c4c(=O)n3-c3ccccc3)c12 [Compound 228]
S: O=C1C[C@@H](c2nn3ccc(F)c3c(=O)n2-c2ccccc2)N(c2ncnc3[nH]cnc23)C1 [Compound 400]
T: O=c1c2c(Cl)ccn2nc([C@@H]2CCCN2c2ncnc3[nH]cnc23)n1C1CCC1 [Compound 374]
Inquiry: Order the entries by their reported pIC50, beginning at the minimum. // respond by listing labels in the order requested
Reply text: R, Q, S, T, P
(R: 6.75, Q: 7.54, S: 7.92, T: 8.40, P: 8.70)

1: C[S@+]([O-])c1c[nH]c2ncnc(N3CCC[C@H]3c3nn4ccc(Cl)c4c(=O)n3-c3ccccn3)c12 [Compound 388]
2: O=c1c2c(Cl)ccn2nc([C@@H]2CCCN2c2ncnc3[nH]cc(F)c23)n1-c1ccccc1 [Compound 147]
3: Nc1nc2c(c(N3CCC[C@H]3c3nn4ccc(Cl)c4c(=O)n3-c3ccccc3)n1)C(=O)CCN2 [Compound 242]
Inquiry: List the 3 entries from lowest pIC50 to highest pIC50 value. Please express your ranking as an ordered list of the labels.
Reply text: 3, 1, 2
(3: 8.00, 1: 8.70, 2: 9.00)

P: O=c1c2c(Cl)ccn2nc([C@@H]2CCCN2c2ncnc3[nH]cc(C4=NCCO4)c23)n1-c1ccccc1 [Compound 303]
Q: Nc1ncnc(N2CCC[C@H]2c2nn3ccc(Cl)c3c(=O)n2-c2ccccc2)c1Cl [Compound 27]
Inquiry: Could you determine which record has the numerically smaller pIC50? Candidates: P and Q Lab log: write the label of the selected item as the result.
Reply text: Q
(Q: 8.52, P: 9.00)
